- Tested on: Plasmodium falciparum Sir2 (PF13_0152, Sir2A)
- procedure.details: pfSir2 binders on small-molecule microarrays, primary screen, biochemical, small-molecule microarray, 635 nm fluorescence (AID 1098);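 note: score merges spot fluorescence intensity with its signal-to-noise ratio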
- condition.description: small-molecule microarray binding, fluorescence 635 nm; higher = more signal
Rule: composite z-score of 0.6 or more gives Y; anything lower gives N.

Is composite z-score for COCCOC(=O)N1C(=O)[C@@]2(c3ccccc31)[C@H](C(N)=O)[C@H]1C(=O)O[C@H](c3ccccc3)[C@H](c3ccccc3)N1[C@@H]2c1ccccc1OCCO at or above 0.6? Y

Is composite z-score for COc1ccc(COC(=O)NN=C2C[C@@H](O)[C@@H](O)[C@@H]3[C@@H]4C(=O)N(Cc5ccc6c(c5)OCO6)C(=O)[C@@H]4CC[C@@H]23)cc1 at or above 0.6? N

Is composite z-score for CCOC(=O)CCN1C(=O)[C@H]2[C@H]3[C@H](O)[C@H](O)CC(=NOC[C@@H](O)COCc4ccco4)[C@@H]3CC[C@H]2C1=O at or above 0.6? N

Is composite z-score for N#Cc1ccc(NN2C(C(O)c3cc(C(F)(F)F)cc(C(F)(F)F)c3)C=CC3C(=O)N(c4ccccc4)C(=O)C32)cc1 (centres undefined) at or above 0.6? Y

Is composite z-score for C/C=C\[C@@H](NCc1ccccc1Br)[C@@H](O)Cc1ccccc1 at or above 0.6? N

Is composite z-score for N#Cc1ccc(NN2C(C(O)c3cccc4ccccc34)C=CC3C(=O)N(c4ccccc4)C(=O)C32)cc1 (centres undefined) at or above 0.6? N

Is composite z-score for CC(C)=CCCC(C)=CCON=C1C[C@@H](O)[C@@H](O)[C@@H]2[C@@H]3C(=O)N(C[C@@H]4CCCO4)C(=O)[C@@H]3CC[C@@H]12 at or above 0.6? Y

Is composite z-score for CC(=O)OC[C@H]1O[C@H](CCON=C[C@@H](C)[C@H](OCc2ccccc2)C(C)C)C=C[C@@H]1OC(C)=O at or above 0.6? N

Is composite z-score for COCCCNC(=O)[C@@]1(Sc2ccc(C)cc2)CC(=O)N(Cc2ccccc2)[C@@H]1c1ccc(CO)cc1I at or above 0.6? N

Is composite z-score for CCCNC(=O)[C@@H]1c2ccccc2C(=O)N(Cc2ccccc2Cl)[C@H]1c1ccc(CO)cc1 at or above 0.6? Y

Is composite z-score for COC(=O)[C@@H]1N=C(c2ccc(OCCCO)cc2)O[C@@H]1c1ccccc1N=[N+]=[N-] at or above 0.6? Y

Is composite z-score for CCOC(=O)C[C@H]1[C@H](OC(=O)c2ccc(C(=O)c3ccccc3)cc2)[C@@H](NC(=O)c2ccc(-c3ccccc3)cc2)c2cc(OCCCO)ccc2N1C(=O)c1ccc2ccccc2n1 at or above 0.6? Y

Is composite z-score for O=C(CS)NCCCCCNC(=O)[C@@H]1C[C@@H]2C(=O)N[C@@H](Cc3ccccc3)C(=O)N2[C@@H]1c1ccc(O)cc1 at or above 0.6? Y

Is composite z-score for Cc1ccc(S(=O)(=O)N[C@@H]2COC(=O)[C@H](C)COC(=O)CC=C[C@H]2C)cc1 at or above 0.6? N

Is composite z-score for CN1C(=O)C2C=CC(C(O)C(c3ccccc3)c3ccccc3)N(NC(=O)OC(C)(C)C)C2C1=O (centres undefined) at or above 0.6? Y

Is composite z-score for Cc1ccc(S[C@]2(C(=O)O)CC(=O)N(Cc3ccccc3)[C@@H]2c2ccc(CO)cc2I)cc1 at or above 0.6? Y

Is composite z-score for CC(CCC(=O)OC[C@H]1O[C@H](C#Cc2ccccc2)C=C[C@@H]1Oc1ccc(C)cc1)=NO[C@@H](C)c1cn([C@H](CO)Cc2ccccc2)nn1 at or above 0.6? Y

Is composite z-score for CC1CC/C=C\[C@H]2OC34C=CCN(Cn5nnc6ccccc65)C(=O)[C@H]3N(CCO)C(=O)[C@@H]4C2C(=O)O1 (some centres undefined) at or above 0.6? Y

Is composite z-score for CN(C)c1ccc(C(O)C2C=CC3C(=O)N(c4ccccc4)C(=O)C3N2Nc2ccccc2F)cc1 (centres undefined) at or above 0.6? Y

Is composite z-score for O=C1C[C@@H](O)[C@@H](O)[C@@H]2[C@@H]3C(=O)N(Cc4ccc5c(c4)OCO5)C(=O)[C@@H]3CC[C@@H]12 at or above 0.6? N

Is composite z-score for COC(=O)CC=C[C@H](C)[C@H](CO)NS(=O)(=O)c1ccc(C)cc1 at or above 0.6? N

Is composite z-score for CO[C@H]([C@@H](C)[C@H](OC)c1ccccc1)[C@H](C)[C@@H](OC)[C@H](C)C(C)=O at or above 0.6? N

Is composite z-score for O=C1[C@H]2[C@H]3[C@H](O)[C@H](O)CC(=NO[C@@H]4O[C@H](CO)[C@@H](O)[C@H](O)[C@H]4O)[C@@H]3CC[C@H]2C(=O)N1Cc1ccc2c(c1)OCO2 at or above 0.6? N

Is composite z-score for CCN1C(=O)[C@H]2[C@H]3[C@H](O)[C@H](O)CC(=NOC(C)CN4CCCCc5nc(C)c(C)cc54)[C@@H]3CC[C@H]2C1=O (some centres undefined) at or above 0.6? N

Is composite z-score for COC(=O)[C@H](C)NC(=O)CCC1CC(OC(=O)NCc2cccc3ccccc23)CC2(CCCC(COC(=O)NCCc3ccc(Cl)cc3)O2)O1 (some centres undefined) at or above 0.6? N

Is composite z-score for C#CCCCON=C1C[C@@H](O)[C@@H](O)[C@@H]2[C@@H]3C(=O)N([C@@H](C)c4ccccc4)C(=O)[C@@H]3CC[C@H]12 at or above 0.6? Y

Is composite z-score for COC(=O)[C@H]1COC(c2ccc(OCCCO)cc2)=N1 at or above 0.6? Y

Is composite z-score for CS(=O)(=O)CCOC(=O)C1=CC(CCCO)=CC(c2cccs2)N(Cc2cccc(OC(F)(F)F)c2)C=C1C(=O)OCCS(C)(=O)=O (centres undefined) at or above 0.6? Y

Is composite z-score for O=C1[C@H]2[C@H]3[C@H](O)[C@H](O)CC(=NO[C@@H]4O[C@H](CO)[C@@H](O)[C@H](O)[C@H]4O)[C@H]3CC[C@H]2C(=O)N1Cc1ccccc1 at or above 0.6? N
